biological target: TNFα (UniProt P01375 77-233); assay: SPR (Biacore), TNFα on CM5 chip, Fab injected; mean of two runs ± SD
Sequence (P01375 77-233 limits assumed): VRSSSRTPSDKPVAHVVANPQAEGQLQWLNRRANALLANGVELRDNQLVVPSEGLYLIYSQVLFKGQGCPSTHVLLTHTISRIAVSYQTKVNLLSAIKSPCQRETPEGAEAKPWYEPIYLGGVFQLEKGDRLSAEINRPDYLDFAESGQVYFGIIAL
MEASURED_ATTRIBUTE: koff (s⁻¹)
The answer is to be given in s⁻¹; state only the numeric part.

Check out these entries, answers already filled in.
- BINDER: "Anti-TNFα H1.103L1.33 (Fab, V domains shown, Fab format; It has thirteen more mutations than anti-TNFα H1L1; also called anti-TNF H1.103L1.33) VH: EVQLVESGGGLVQPGGSLKLSCAASGFIFSNHWMNWVRQASGKGLEWVGEIRSKANNYATHYAASVKGRFTISRDDSKNTAYLQMNSLKTEDTAVYYCSRNYYGSTYDYWGQGTLVTVSS VL: EIVLTQSPDFQSVTPKEKVTITCRASQFIGSSLHWYQQKPDQSPKLLIKYASESFSGVPSRFSGSGSGTDFTLTINSLEAEDAATYYCQQSHSWPFTFGSGTKLEIK"
  koff / s⁻¹: 0.00092
- BINDER: "Anti-TNFα H1.101L1.33 (Fab, V domains shown, Fab format) VH: EVQLVESGGGLVQPGGSLKLSCAASGFIFSNHWMNWVRQASGKGLEWVGEIRSKAINYATHYAESVKGRFTISRDDSKSTAYLQMNSLKTEDTAVYYCSRNYYGSTYDYWGQGTLVTVSS VL: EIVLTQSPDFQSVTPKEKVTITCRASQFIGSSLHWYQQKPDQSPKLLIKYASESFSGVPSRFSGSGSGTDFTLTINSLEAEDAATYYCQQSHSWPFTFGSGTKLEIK"
  koff / s⁻¹: 0.000874

Please find the next binder below.
Recall and state the measured koff for Anti-TNFα H1L1 (Fab, V domains shown, Fab format, purified by Ni-NTA chromatography; also called framework optimized anti-TNFα H1L1) VH: EVQLVESGGGLVQPGGSLKLSCAASGFIFSNHWMNWVRQASGKGLEWVGEIRSKSINSATHYAESVKGRFTISRDDSKSIVYLQMNSLKTEDTAVYYCSRNYYGSTYDYWGQGTLVTVSS VL: DILLTQSPDFQSVTPKEKVTITCRASQFVGSSIHWYQQKPDQSPKLLIKYASESMSGIPSRFSGSGSGTDFTLTINSLEAEDAATYYCQQSHSWPFTFGSGTKLEIK .
0.00116

Provenance of the data: patent US20100004431A1
